The measured values listed here are drawn from patent EP4534554A1.

Each entry below carries its reported EC50 of Dextramer staining.
# Target Desc: T1, MAGE-A1 peptide on HLA-A*02:01 (human)
# T1 peptide: KVLEYVIKV
# Procedure Text: MAGE-A1 Dextramer gradient on transduced JKR9; unit inferred; full-length, on cells
Write it as a number; the unit nM goes unstated.

[
  {
    "Binder": "A1A2-M01-613 (TCR, V domains shown) Valpha: GEDVEQSLFLSVREGDSSVINCTYTDSSLTYLYWYKQEPGAGLQLLTYIFSFMDMKQDQRLTVLLNKKDKHLSLRIADTQTGDSAIYFCAGSGGGTDKLIFGTGTRLQVFP Vbeta: GAVVSQHPSWVICKSGTSVKIECRSLDFQATTMFWYRQFPKQSLMLMATTDYGSKATYEQGVEKDKFLINHASLTLSTLTVTSAHPEDSSFYICSAREPGQGPWEQYFGPGTRLTVT",
    "EC50 of Dextramer staining [nM]": 0.0961
  },
  {
    "Binder": "A1A2-M01-623 (TCR, V domains shown) Valpha: GEDVEQSLFLSVREGDSSVINCTYTDSSQTYLYWYKQEPGAGLQLLTYIFIFQAMKQDQRLTVLLNKKDKHLSLRIADTQTGDSAIYFCAGSGGGTDKLIFGTGTRLQVFP Vbeta: GAVVSQHPSWVICKSGTSVKIECRSLDFEATTMFWYRQFPKQSLMLMATTDYGSKATYEQGVEKDKFLINHASLTLSTLTVTSAHPEDSSFYICSAREPGQGPWEQYFGPGTRLTVT",
    "EC50 of Dextramer staining [nM]": 0.187
  },
  {
    "Binder": "A1A2-M01-617 (TCR, V domains shown) Valpha: GEDVEQSLFLSVREGDSSVINCTYPDMFSTYLYWYKQEPGAGLQLLTYIFAFMQMKQDQRLTVLLNKKDKHLSLRIADTQTGDSAIYFCAGSGGGTDKLIFGTGTRLQVFP Vbeta: GAVVSQHPSWVICKSGTSVKIECRSLDFEATTMFWYRQFPKQSLMLMATSNEGDQATYEQGVEKDKFLINHASLTLSTLTVTSAHPEDSSFYICSAREPGQGPWEQYFGPGTRLTVT",
    "EC50 of Dextramer staining [nM]": 0.103
  },
  {
    "Binder": "A1A2-M01-616 (TCR, V domains shown) Valpha: GEDVEQSLFLSVREGDSSVINCTYTDSSQTYLYWYKQEPGAGLQLLTYIFAFMQMKQDQRLTVLLNKKDKHLSLRIADTQTGDSAIYFCAGSGGGTDKLIFGTGTRLQVFP Vbeta: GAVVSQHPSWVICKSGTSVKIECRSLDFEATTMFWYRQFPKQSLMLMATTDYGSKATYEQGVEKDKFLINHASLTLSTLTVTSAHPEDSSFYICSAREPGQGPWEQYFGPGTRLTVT",
    "EC50 of Dextramer staining [nM]": 0.0808
  }
]

IN: Specify EC50 of Dextramer staining for A1A2-M01-620 (TCR, V domains shown) Valpha: GEDVEQSLFLSVREGDSSVINCTYTDSSQTYLYWYKQEPGAGLQLLTYIFSNMDMKQDQRLTVLLNKKDKHLSLRIADTQTGDSAIYFCAGSGGGTDKLIFGTGTRLQVFP Vbeta: GAVVSQHPSWVICKSGTSVKIECRSLDFEATTMFWYRQFPKQSLMLMATTDYGSKATYEQGVEKDKFLINHASLTLSTLTVTSAHPEDSSFYICSAREPGQAWSDQYFGPGTRLTVT and stop.
OUT: 0.212
